assay: Metabolic stability in pooled human liver microsomes; type: in vitro ADME; conditions: human, pooled human liver microsomes, pooled human liver microsomes 0.5 mg/mL, 1 μM test compound, 37° C., with 1 mM NADPH; * rows = mean of two runs; read-out: T1/2, + NaDPH
OBSERVATION_TYPE: half-life at 1 μM (min)
Numeric answer only, unit min assumed.

Challenge: Query: half-life at 1 μM; subject: "COc1ccc(NS(=O)(=O)c2ccc(CC(C)C)cc2-c2ccc(Cn3ccnc3C(C)(C)C)cc2)nn1"
Response given: 20

Challenge: Next up: "CC(C)Cc1ccc(S(=O)(=O)Nc2nccs2)c(-c2ccc(Cn3ccnc3C(C)(C)C)cc2)c1"
Response given: 43

Challenge: Next up: "COc1cnc(NS(=O)(=O)c2ccc(CC(C)C)cc2-c2ccc(Cn3ccnc3C(C)(C)C)cc2)nc1"
Response given: 42

Challenge: Next up: "COc1cnc(NS(=O)(=O)c2ccc(CC(C)C)cc2-c2ccc(Cn3ccnc3C(C)(C)C)c(F)c2)nc1"
Response given: 47

----------
molecular target: human recombinant AT2 receptor (Homo sapiens); construct: purchased Eurofins ITEM26 (protocol number); assay: Binding to AT2 receptor, radiometric scintillation assay (Eurofins ITEM26); conditions: test compounds at 1, 10, 100 and 1000 nM, ligand 125I CGP 42112A; * rows = mean of runs; read-out: AT2 GraFit IC50
Sequence (P50052 whole entry): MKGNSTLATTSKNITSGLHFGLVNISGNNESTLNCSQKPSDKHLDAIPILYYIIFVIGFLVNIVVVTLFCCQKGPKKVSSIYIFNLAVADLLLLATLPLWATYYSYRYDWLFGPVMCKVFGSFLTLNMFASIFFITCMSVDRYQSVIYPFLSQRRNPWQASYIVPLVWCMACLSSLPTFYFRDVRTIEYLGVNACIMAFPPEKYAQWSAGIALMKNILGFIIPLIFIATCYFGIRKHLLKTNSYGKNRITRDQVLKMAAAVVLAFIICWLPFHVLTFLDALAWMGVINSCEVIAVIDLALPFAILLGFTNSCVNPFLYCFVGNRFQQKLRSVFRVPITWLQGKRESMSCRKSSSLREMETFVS
Below: a set of entries, each annotated with reported log10(IC50).
Kindly note that the scale is log10 and the underlying IC50 is in nM.

Solved cases below.
CC(C)Cc1ccc(S(=O)(=O)Nc2ncc(F)cn2)c(-c2ccc(Cn3ccnc3C(C)(C)C)c(F)c2)c1
0.61
CCc1nccn1Cc1ccc(-c2cc(CC(C)C)ccc2S(=O)(=O)Nc2ncccn2)cc1F
-0.05
COc1cc(NS(=O)(=O)c2ccc(CC(C)C)cc2-c2ccc(Cn3ccnc3C(C)(C)C)c(F)c2)nc(OC)n1
2.08
Cc1nc(NS(=O)(=O)c2ccc(CC(C)C)cc2-c2ccc(Cn3ccnc3C(C)(C)C)c(F)c2)oc1C
0.16
CC(C)Cc1cc(-c2ccc(Cn3ccnc3C(C)C)c(F)c2)c(S(=O)(=O)Nc2ncccn2)s1
-0.19
CC(C)Cc1ccc(S(=O)(=O)Nc2ncccn2)c(-c2ccc(Cn3ccnc3C(C)(C)C)c(F)c2)c1
0.40
CC(C)Cc1ccc(S(=O)(=O)Nc2ncc(Br)cn2)c(-c2ccc(Cn3ccnc3C(C)(C)C)c(F)c2)c1
0.49
Cc1nccn1Cc1ccc(-c2cc(CC(C)C)ccc2S(=O)(=O)Nc2ncccn2)cc1F [Example 28]
-0.10
CC(C)Cc1ccc(S(=O)(=O)Nc2ncc(C#N)cn2)c(-c2ccc(Cn3ccnc3C(C)(C)C)c(F)c2)c1
0.62
COc1ccc(NS(=O)(=O)c2ccc(CC(C)C)cc2-c2ccc(Cn3ccnc3C(C)(C)C)c(F)c2)nn1
-0.19

Challenge: Query: log10(IC50); subject: "CC(C)Cc1ccc(S(=O)(=O)Nc2ncc(Cl)cn2)c(-c2ccc(Cn3ccnc3C(C)(C)C)c(F)c2)c1"
Response given: 0.48

Challenge: Next up: "CC(C)Cc1cc(-c2ccc(Cn3ccnc3C(C)C)cc2)c(S(=O)(=O)Nc2ncccn2)s1"
Response given: 0.13

Challenge: Next up: "CC(C)Cc1ccc(S(=O)(=O)Nc2ccsn2)c(-c2ccc(Cn3ccnc3C(C)(C)C)c(F)c2)c1"
Response given: 0.26

----------
target: CYP1A2 (Homo sapiens, UniProt P05177); construct: isoform-specific substrates incubated with human liver microsomes; tissue Eurofins ITEMG232 (protocol number); host or cells: human liver microsomes; experiment: in vitro; format: in vitro ADME; settings: human, microsomes, human liver microsomes, substrate phenacetin, read-out: CYP1A2 Inh %
Sequence (P05177 whole entry, canonical isoform): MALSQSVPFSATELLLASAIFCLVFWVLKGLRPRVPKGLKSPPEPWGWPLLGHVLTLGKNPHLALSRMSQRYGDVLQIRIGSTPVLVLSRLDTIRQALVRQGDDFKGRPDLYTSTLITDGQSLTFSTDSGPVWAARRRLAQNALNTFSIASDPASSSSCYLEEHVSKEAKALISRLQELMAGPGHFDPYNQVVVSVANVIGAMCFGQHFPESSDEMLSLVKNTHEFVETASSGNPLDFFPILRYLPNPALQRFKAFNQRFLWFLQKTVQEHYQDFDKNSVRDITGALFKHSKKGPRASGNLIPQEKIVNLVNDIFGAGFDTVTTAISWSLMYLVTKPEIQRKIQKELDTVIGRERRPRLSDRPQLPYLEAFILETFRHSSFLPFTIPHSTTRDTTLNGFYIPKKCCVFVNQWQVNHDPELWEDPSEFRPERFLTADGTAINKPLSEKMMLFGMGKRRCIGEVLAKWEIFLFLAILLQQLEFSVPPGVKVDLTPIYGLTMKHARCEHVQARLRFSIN
OBSERVATION_TYPE: inhibition at 10 µM

CC(C)Cc1ccc(S(=O)(=O)Nc2ncc(C#N)cn2)c(-c2ccc(Cn3ccnc3C(C)(C)C)c(F)c2)c1
16.7%
Cc1nccn1Cc1ccc(-c2cc(CC(C)C)ccc2S(=O)(=O)Nc2ncccn2)cc1F
22.2%
CCc1nccn1Cc1ccc(-c2cc(CC(C)C)ccc2S(=O)(=O)Nc2ncccn2)cc1F
13.6%
CC(C)Cc1ccc(S(=O)(=O)Nc2nccs2)c(-c2ccc(Cn3ccnc3C(C)(C)C)c(F)c2)c1
43%
CC(C)Cc1ccc(S(=O)(=O)Nc2ncc(C(F)(F)F)cn2)c(-c2ccc(Cn3ccnc3C(C)(C)C)c(F)c2)c1
-6.4%
COc1ncnc(OC)c1NS(=O)(=O)c1ccc(CC(C)C)cc1-c1ccc(Cn2ccnc2C(C)(C)C)c(F)c1
-5.4%

Challenge: Can you look up inhibition at 10 µM on CYP1A2 (Homo sapiens, UniProt P05177) for "COc1ccc(NS(=O)(=O)c2ccc(CC(C)C)cc2-c2ccc(Cn3ccnc3C(C)(C)C)cc2)nn1" ?
Response given: 30%

----------
molecular target: CYP3A4 (Homo sapiens); assay: CYP inhibition in human liver microsomes (Eurofins ITEMG232), midazolam substrate; type: in vitro ADME; design: isoform-specific substrates incubated with human liver microsomes; tissue Eurofins ITEMG232 (protocol number); host or cells: human liver microsomes; conditions: human, probe midazolam, read-out: CYP3A4 midazolam Inh %
Sequence (P08684 whole entry, canonical isoform): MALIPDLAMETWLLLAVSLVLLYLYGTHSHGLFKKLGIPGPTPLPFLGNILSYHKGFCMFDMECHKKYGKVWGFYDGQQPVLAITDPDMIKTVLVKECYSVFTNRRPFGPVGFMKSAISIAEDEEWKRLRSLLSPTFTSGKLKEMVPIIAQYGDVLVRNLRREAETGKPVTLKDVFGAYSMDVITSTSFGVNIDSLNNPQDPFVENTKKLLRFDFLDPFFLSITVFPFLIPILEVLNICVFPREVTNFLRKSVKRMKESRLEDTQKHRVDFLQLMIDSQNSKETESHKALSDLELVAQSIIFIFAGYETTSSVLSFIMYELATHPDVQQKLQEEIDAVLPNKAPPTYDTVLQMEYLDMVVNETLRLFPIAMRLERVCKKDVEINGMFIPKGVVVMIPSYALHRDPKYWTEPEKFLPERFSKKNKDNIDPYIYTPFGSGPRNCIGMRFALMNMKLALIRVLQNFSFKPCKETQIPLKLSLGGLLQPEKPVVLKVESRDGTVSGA
Below: a set of entries, each annotated with reported inhibition at 10 µM.
Numeric answer only, unit % assumed.

Solved cases below.
COc1ncnc(OC)c1NS(=O)(=O)c1ccc(CC(C)C)cc1-c1ccc(Cn2ccnc2C(C)(C)C)c(F)c1 [Example 25]
65.1
CC(C)Cc1ccc(S(=O)(=O)Nc2ncc(Br)cn2)c(-c2ccc(Cn3ccnc3C(C)(C)C)c(F)c2)c1 [Example 11]
16.1
Cc1nccn1Cc1ccc(-c2cc(CC(C)C)sc2S(=O)(=O)Nc2ncccn2)cc1F [Example 44]
35
COc1ccc(NS(=O)(=O)c2ccc(CC(C)C)cc2-c2ccc(Cn3ccnc3C(C)(C)C)cc2)nn1 [Example 14]
10.3
COc1ccc(NS(=O)(=O)c2ccc(CC(C)C)cc2-c2ccc(Cn3ccnc3C(C)(C)C)c(F)c2)nn1 [Example 23]
55.8

Challenge: Can you look up inhibition at 10 µM on CYP3A4 (Homo sapiens) for CC(C)Cc1ccc(S(=O)(=O)Nc2ncc(C#N)cn2)c(-c2ccc(Cn3ccnc3C(C)(C)C)c(F)c2)c1 [Example 12] ?
Response given: 14.6

Challenge: Next up: CC(C)Cc1ccc(S(=O)(=O)Nc2ncc(F)cn2)c(-c2ccc(Cn3ccnc3C(C)(C)C)c(F)c2)c1 [Example 9]
Response given: 7.7

----------
experiment: Metabolic stability in pooled human liver microsomes; type: in vitro ADME; conditions: human, pooled human liver microsomes, pooled human liver microsomes 0.5 mg/mL, 1 μM test compound, 37° C., without NADPH; * rows = mean of two runs; read-out: T1/2, no NaDPH
Below: a set of entries, each annotated with reported half-life at 1 μM.

Solved cases below.
CC(C)Cc1cc(-c2ccc(Cn3ccnc3)c(F)c2)c(S(=O)(=O)Nc2ncccn2)s1
> 1 h
CC(C)Cc1cc(-c2ccc(Cn3ccnc3C(C)(C)C)c(F)c2)c(S(=O)(=O)Nc2ncccn2)s1
> 1 h
CC(C)Cc1ccc(S(=O)(=O)Nc2ncc(F)cn2)c(-c2ccc(Cn3ccnc3C(C)(C)C)c(F)c2)c1
> 1 h

Challenge: Query: half-life at 1 μM; subject: "COc1ncnc(OC)c1NS(=O)(=O)c1ccc(CC(C)C)cc1-c1ccc(Cn2ccnc2C(C)(C)C)cc1"
Response given: > 1 h

Challenge: Next up: "CCc1nccn1Cc1ccc(-c2cc(CC(C)C)ccc2S(=O)(=O)Nc2ncccn2)cc1"
Response given: > 1 h

Challenge: Next up: "CC(C)Cc1ccc(S(=O)(=O)Nc2ncc(Br)cn2)c(-c2ccc(Cn3ccnc3C(C)(C)C)c(F)c2)c1"
Response given: > 1 h

Challenge: Next up: "CC(C)Cc1ccc(S(=O)(=O)Nc2ncc(C#N)cn2)c(-c2ccc(Cn3ccnc3C(C)(C)C)c(F)c2)c1"
Response given: > 1 h

----------
target: human recombinant AT2 receptor (Homo sapiens); construct: purchased Eurofins ITEM26 (protocol number); test: Binding to AT2 receptor, radiometric scintillation assay (Eurofins ITEM26); details: seven-point dose-response curve, ligand 125I CGP 42112A; * rows = mean of runs
OBSERVATION_TYPE: Ki (nM)
Numeric answer only, unit nM assumed.

Solved cases below.
CC(C)Cc1ccc(S(=O)(=O)Nc2ncccn2)c(-c2ccc(Cn3ccnc3)cc2)c1 [Example 38]
1.38
COc1ncncc1NS(=O)(=O)c1ccc(CC(C)C)cc1-c1ccc(Cn2ccnc2C(C)(C)C)c(F)c1 [Example 22]
71

Challenge: Query: Ki; subject: CCc1nccn1Cc1ccc(-c2cc(CC(C)C)ccc2S(=O)(=O)Nc2ncccn2)cc1F [Example 29]
Response given: 0.45

Challenge: Next up: CC(C)Cc1cc(-c2ccc(Cn3ccnc3C(C)(C)C)c(F)c2)c(S(=O)(=O)Nc2ncccn2)s1 [Example 43]
Response given: 0.3

Challenge: Next up: Cc1nc(NS(=O)(=O)c2ccc(CC(C)C)cc2-c2ccc(Cn3ccnc3C(C)(C)C)cc2)oc1C [Example 13]
Response given: 22.9

Challenge: Next up: CC(C)Cc1ccc(S(=O)(=O)Nc2ncccn2)c(-c2ccc(Cn3ccnc3)c(F)c2)c1 [Example 30]
Response given: 0.5

Challenge: Next up: Cc1cnc(NS(=O)(=O)c2ccc(CC(C)C)cc2-c2ccc(Cn3ccnc3C(C)(C)C)cc2)nc1 [Example 20]
Response given: 3.75

Challenge: Next up: CC(C)Cc1ccc(S(=O)(=O)Nc2ccsn2)c(-c2ccc(Cn3ccnc3C(C)(C)C)c(F)c2)c1 [Example 32]
Response given: 0.92

Hello, the source for this data is patent US12441718B2, in case you need it.
